src = patent US4882319A

Target: human steroid 5-α-reductase (Homo sapiens)
Sequence (P31213 1-254): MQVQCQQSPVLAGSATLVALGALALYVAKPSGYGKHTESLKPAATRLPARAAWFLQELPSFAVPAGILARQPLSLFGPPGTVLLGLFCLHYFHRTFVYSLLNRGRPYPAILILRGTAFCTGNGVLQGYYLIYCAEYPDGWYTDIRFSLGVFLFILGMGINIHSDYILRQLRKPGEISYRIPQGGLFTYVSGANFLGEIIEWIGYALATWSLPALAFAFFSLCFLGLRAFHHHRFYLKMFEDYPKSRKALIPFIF
assay_readout: pKi
// scale note: pKi = -log10(conc_M); give the bare number

Entry under review: CC(C)N(C(=O)[C@H]1CCC2C3CCc4cc(P(=O)(O)O)ccc4C3CCC21C)C(C)C (stereo partly shown) . Reported pKi?
7.30
